So I've got a bunch of compounds here, and I need their Ki values.
- assayed.system: Interstitial collagenase (Homo sapiens, UniProt P03956)
- Sequence (P03956 whole entry): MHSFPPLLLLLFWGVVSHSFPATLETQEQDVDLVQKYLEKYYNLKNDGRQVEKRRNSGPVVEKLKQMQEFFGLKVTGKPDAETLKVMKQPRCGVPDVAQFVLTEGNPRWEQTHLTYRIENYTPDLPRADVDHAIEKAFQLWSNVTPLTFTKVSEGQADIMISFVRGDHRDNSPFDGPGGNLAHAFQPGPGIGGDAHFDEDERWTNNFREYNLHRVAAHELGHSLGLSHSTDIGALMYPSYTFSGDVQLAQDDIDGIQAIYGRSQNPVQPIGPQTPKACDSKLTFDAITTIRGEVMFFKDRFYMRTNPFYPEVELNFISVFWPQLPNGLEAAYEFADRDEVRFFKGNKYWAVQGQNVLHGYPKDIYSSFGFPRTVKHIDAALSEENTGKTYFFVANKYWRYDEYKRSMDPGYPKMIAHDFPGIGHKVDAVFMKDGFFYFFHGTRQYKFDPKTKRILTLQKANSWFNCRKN

compound | quantity.measured | readout.value
Cc1cc(COc2ccc(C(=O)NCc3n[nH]c(=O)[nH]3)cc2)c2ccccc2n1 | Ki | > 4.95 µM
Cc1cc(COc2ccc(C(=O)N[C@H]3CN(C(=O)OC(C)(C)C)C[C@@H]3c3n[nH]c(=O)[nH]3)cc2)c2ccccc2n1 | Ki | > 4.95 µM

Let's switch to this compound now.
Ask: Kindly indicate its recorded Ki. Item: Cc1cc(COc2ccc(C(=O)NCC3(C)NC(=O)NC3=O)cc2)c2ccccc2n1 (stereo not drawn)
Reply: > 4.95 µM
